Just for reference, patent US9102673B2 is where these values come from.

measurement_target: TrkA (Homo sapiens)
Sequence (P04629 33-796): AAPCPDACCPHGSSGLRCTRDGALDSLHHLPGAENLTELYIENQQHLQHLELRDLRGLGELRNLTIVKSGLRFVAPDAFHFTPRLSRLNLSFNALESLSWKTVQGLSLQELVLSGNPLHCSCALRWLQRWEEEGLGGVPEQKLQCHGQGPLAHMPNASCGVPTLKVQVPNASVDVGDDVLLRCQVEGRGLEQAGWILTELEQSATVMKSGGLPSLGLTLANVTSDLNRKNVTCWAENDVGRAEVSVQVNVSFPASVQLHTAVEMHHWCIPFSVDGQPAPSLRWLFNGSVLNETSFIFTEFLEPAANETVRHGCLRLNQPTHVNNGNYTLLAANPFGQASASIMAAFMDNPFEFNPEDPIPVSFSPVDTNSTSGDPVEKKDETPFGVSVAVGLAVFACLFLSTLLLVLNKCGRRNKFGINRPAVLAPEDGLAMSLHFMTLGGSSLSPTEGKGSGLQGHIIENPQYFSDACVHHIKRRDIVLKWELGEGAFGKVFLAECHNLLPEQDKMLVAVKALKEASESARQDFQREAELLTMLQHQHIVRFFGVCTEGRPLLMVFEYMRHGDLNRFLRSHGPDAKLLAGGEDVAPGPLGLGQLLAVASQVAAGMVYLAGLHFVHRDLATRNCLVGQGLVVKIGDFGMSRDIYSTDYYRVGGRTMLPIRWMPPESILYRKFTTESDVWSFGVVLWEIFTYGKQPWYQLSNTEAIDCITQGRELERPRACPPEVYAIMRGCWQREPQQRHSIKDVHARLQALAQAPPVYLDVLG
test_summary: TrkA kinase activity: phosphorylation of a fluorescently labeled peptide substrate (Caliper EZReader II)
condition_label: [E]=0.37 nM, [S]=1 μM, [ATP]=2 mM, room temperature, 3 hours; read-out: Trk A EC50
pEC50: −log10 of the molar value.
Classification field: fulfilled = pEC50 at or over 6; not fulfilled = pEC50 under 6.

Test whether the compound CCOc1cccc(-c2nccc3c(CCOc4ccc(OC(F)(F)F)cc4)c(C(=O)O)[nH]c23)c1 records pEC50 of 6 or higher.
fulfilled

Test whether the compound O=C(O)c1cc2cc(-c3cn[nH]c3)ccc2n1CCOc1ccc(OC(F)(F)F)cc1 records pEC50 of 6 or higher.
fulfilled

Test whether the compound CCOc1cccc(-c2nccc3c2cc(C(=O)O)n3CCOc2ccc(C(F)(F)F)nc2)c1 records pEC50 of 6 or higher.
not fulfilled

Test whether the compound O=C(O)c1cc2c(-c3cccc4ncccc34)nccc2n1Cc1noc(-c2ccccc2)n1 records pEC50 of 6 or higher.
not fulfilled

Test whether the compound O=C(O)c1cc2cc(-c3cccnc3)ccc2n1CCOc1ccc(OC(F)(F)F)cc1 records pEC50 of 6 or higher.
fulfilled

Test whether the compound O=C(O)c1cc2cc(-c3cncnc3)ccc2n1CCOc1ccc(OC(F)(F)F)cc1 records pEC50 of 6 or higher.
fulfilled

Test whether the compound CCCNc1nccc(-c2nccc3c2cc(C(=O)O)n3CCOc2ccc(OC(F)(F)F)cc2)n1 records pEC50 of 6 or higher.
not fulfilled

Test whether the compound CCCNc1ncc(-c2nccc3c2cc(C(=O)O)n3CCOc2ccc(OC(F)(F)F)cc2)s1 records pEC50 of 6 or higher.
fulfilled
